Biological target: T1, recombinant human PD-1 expressed with a C-terminal myc-myc-hexahistidine tag (human)
T1 construct: also called hPD-1-MMH; human PD-1-MMH
T1 sequence (chain, as listed by the source limits assumed): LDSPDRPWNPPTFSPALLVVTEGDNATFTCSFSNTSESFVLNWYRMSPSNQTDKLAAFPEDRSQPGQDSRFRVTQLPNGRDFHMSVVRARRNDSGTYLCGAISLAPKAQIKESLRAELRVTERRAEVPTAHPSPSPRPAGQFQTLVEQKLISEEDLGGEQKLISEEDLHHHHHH
Test: SPR (Biacore), mAb captured, hPD-1-MMH injected, 25 C;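 further: rate constants obtained by fitting sensorgrams to a 1:1 binding model, KD derived as kd/ka and half-life as ln2/(60·kd) in minutes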
// reported kon for each item listed
Hi! Could you send only the number? It should be in M⁻¹ s⁻¹, unit omitted.

H2aM7796N (antibody, mouse IgG2a, V domains shown, Human variable domains, mouse IgG2a Fc; also called H2M7796N) VH: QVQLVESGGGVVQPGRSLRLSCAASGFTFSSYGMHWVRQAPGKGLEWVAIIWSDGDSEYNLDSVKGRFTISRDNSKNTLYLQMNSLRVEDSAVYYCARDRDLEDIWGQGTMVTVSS VL: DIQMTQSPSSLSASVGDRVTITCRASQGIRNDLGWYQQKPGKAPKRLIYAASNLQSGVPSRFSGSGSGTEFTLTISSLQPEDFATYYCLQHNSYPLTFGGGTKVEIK
6730
H1M7799N (antibody, mouse IgG1, V domains shown, Human variable domains, mouse IgG1 Fc) VH: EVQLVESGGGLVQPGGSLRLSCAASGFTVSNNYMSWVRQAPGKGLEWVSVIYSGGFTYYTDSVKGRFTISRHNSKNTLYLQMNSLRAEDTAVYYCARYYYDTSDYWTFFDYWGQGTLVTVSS VL: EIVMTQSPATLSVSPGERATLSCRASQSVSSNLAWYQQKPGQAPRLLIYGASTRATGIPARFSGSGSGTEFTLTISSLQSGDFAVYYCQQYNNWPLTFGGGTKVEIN
50400

# input for lookup
Q: Please report the recorded kon for H1M7789N (antibody, mouse IgG1, V domains shown, Human variable domains, mouse IgG1 Fc (H1M prefix)) VH: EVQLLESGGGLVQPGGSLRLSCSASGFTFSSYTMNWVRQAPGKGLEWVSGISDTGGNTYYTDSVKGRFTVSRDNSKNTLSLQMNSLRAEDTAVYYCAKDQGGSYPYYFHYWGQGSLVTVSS VL: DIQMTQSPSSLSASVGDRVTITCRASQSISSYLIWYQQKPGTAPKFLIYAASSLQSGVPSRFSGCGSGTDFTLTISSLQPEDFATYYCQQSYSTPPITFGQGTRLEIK .
Result: 25300
